Origin of the recorded values: patent US20140235616A1

Target: human MetAP2 (Homo sapiens, UniProt P50579)
Construct: made in house; host or cells: Sf9 insect cells (baculovirus)
Sequence (P50579 whole entry): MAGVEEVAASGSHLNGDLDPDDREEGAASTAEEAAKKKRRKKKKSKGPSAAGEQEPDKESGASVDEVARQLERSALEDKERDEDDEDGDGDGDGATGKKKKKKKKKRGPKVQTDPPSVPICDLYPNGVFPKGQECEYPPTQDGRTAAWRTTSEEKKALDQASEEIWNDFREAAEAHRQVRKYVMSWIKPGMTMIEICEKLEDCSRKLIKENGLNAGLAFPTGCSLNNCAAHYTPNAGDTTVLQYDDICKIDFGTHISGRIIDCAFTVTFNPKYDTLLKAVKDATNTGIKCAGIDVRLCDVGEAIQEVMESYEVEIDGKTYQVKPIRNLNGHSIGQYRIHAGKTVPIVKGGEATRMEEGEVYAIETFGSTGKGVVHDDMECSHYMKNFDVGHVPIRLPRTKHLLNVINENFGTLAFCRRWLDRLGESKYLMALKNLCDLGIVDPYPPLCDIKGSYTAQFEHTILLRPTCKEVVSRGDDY
Experiment: MetAP2 enzymatic screening test (isolated enzyme, Met-Pro-Arg-pNa substrate, absorbance at 405 nm)
Format: biochemical
Conditions: read-out: % inhibition hMETAP2 at 100 nM
Give inhibition at 0.1 µM for every item shown.
Give your result in % as a bare value.

Prompt: API: value(readout= inhibition at 0.1 µM, system= human MetAP2 (Homo sapiens, UniProt P50579), query= CN(C)CCOc1cccc(-c2ccc3c4[nH]ncc4c(=O)n(CC(F)(F)F)c3c2)c1 )
Completion: 41

Prompt: API: value(readout= inhibition at 0.1 µM, system= human MetAP2 (Homo sapiens, UniProt P50579), query= O=c1c2cn[nH]c2c2ccc(-c3cccc(O)c3)cc2n1CC(F)(F)F )
Completion: 40

Prompt: API: value(readout= inhibition at 0.1 µM, system= human MetAP2 (Homo sapiens, UniProt P50579), query= CCn1c(=O)c2cn[nH]c2c2ccc(-c3cnc(N4CCN(C)CC4)nc3)cc21 )
Completion: 64

Prompt: API: value(readout= inhibition at 0.1 µM, system= human MetAP2 (Homo sapiens, UniProt P50579), query= O=c1c2cn[nH]c2c2ccc(-c3cncnc3-c3ccccc3)cc2n1CC(F)(F)F )
Completion: 40

Prompt: API: value(readout= inhibition at 0.1 µM, system= human MetAP2 (Homo sapiens, UniProt P50579), query= CC(=O)NCc1ccccc1-c1ccc2c3[nH]ncc3c(=O)n(CC(F)(F)F)c2c1 )
Completion: 41

Prompt: API: value(readout= inhibition at 0.1 µM, system= human MetAP2 (Homo sapiens, UniProt P50579), query= Cc1cc(N)ncc1-c1ccc2c3[nH]ncc3c(=O)n(CC(F)(F)F)c2c1 )
Completion: 45

Prompt: API: value(readout= inhibition at 0.1 µM, system= human MetAP2 (Homo sapiens, UniProt P50579), query= COc1cc(-c2ccc3c4[nH]ncc4c(=O)n(CC(F)(F)F)c3c2)ccn1 )
Completion: 40

Prompt: API: value(readout= inhibition at 0.1 µM, system= human MetAP2 (Homo sapiens, UniProt P50579), query= CCn1c(=O)c2cn[nH]c2c2ccc(-c3cccc(C(=O)NCCN(C)C)c3)cc21 )
Completion: 60
